We begin with a simple list: items and their reported Percent Effect.
Target: Tyrosyl-tRNA synthetase, putative (Trypanosoma cruzi (strain CL Brener)) (UniProt Q4DSP6)
Sequence (whole entry): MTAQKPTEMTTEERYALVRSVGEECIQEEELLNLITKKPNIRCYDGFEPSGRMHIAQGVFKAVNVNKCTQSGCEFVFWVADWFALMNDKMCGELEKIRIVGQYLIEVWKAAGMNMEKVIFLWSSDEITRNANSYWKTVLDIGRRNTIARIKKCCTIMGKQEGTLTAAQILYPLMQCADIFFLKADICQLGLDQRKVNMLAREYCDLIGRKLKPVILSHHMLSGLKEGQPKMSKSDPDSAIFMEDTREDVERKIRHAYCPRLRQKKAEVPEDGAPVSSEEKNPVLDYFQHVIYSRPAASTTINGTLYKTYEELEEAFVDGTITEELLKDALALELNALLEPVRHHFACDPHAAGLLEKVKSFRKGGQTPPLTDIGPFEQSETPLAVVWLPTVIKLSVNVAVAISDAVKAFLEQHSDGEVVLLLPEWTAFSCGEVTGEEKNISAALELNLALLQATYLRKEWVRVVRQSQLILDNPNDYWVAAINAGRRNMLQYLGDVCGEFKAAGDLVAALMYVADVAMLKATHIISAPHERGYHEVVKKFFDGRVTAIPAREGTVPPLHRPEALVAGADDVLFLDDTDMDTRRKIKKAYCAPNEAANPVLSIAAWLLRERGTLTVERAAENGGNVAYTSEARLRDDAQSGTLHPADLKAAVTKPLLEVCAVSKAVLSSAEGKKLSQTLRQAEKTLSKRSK
Test: Trypanosoma cruzi tyrosyl tRNA synthetase (TcYRS) _High Tyrosine SOP
Format: functional
Set-up: scale not given: in the data most compounds retested in dose-response had high values
Conditions: 30 µM
Please give a number only; it is taken to be in %.

Some entries whose results are on file:
O=C1CC2(CCN(CC3CC3)C2)CN1c1cccc(F)c1 (stereo unspecified): 3.23
CC(C)c1nn(C)c(N2CCOCC2)c1CN[C@H](C)CO: 5.42
Cc1ccc(N2CC[C@H]3OCC[C@@]3(C(=O)NC(C)C)C2)nn1: 6.93
COc1ccc(CNCC2CC2)cc1F: 4.95
O=C(c1ccncc1)N1CCC(c2nc(O)cc(-c3cccnc3)n2)C1 (stereo unspecified): 8.51

In the following, a different compound is considered.
Quick one: Percent Effect for Cc1cnn(CCC(=O)N2CCC(Nc3cccnn3)CC2)c1 ?
0.493

Reference for the values: ChEMBL document CHEMBL3988442
